target: Recombinant STAT3 protein (STAT3(G127-I722)) (Homo sapiens, UniProt P40763); construct: Recombinant STAT3 protein (STAT3(G127-I722)); experiment: STAT3 Fluorescence Polarization (FP) Assay; conditions: STAT3(G127-I722) 25 nM, probe 5-FAM-GpYLPQTV-NH2 2 nM, 45-minute incubation
Sequence (P40763 127-722): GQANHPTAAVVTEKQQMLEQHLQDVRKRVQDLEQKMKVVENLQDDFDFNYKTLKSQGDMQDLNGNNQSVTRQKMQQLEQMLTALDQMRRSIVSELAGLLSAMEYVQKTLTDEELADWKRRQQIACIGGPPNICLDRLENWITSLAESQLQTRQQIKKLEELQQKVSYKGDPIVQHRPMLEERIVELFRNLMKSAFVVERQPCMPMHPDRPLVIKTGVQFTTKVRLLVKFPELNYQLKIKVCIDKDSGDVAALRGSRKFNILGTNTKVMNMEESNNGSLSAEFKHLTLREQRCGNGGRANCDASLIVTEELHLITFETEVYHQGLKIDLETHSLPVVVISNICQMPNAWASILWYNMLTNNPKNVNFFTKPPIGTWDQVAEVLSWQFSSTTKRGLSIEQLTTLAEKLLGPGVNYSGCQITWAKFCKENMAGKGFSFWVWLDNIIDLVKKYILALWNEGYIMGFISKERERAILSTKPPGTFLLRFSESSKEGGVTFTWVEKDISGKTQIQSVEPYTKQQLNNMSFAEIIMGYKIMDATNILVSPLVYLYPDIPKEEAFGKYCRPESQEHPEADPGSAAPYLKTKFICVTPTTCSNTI
pIC50: −log10 of the molar value.
Quick reference for pIC50 among some compounds
Metric: pIC50

- N#C[C@@H]1CN(C(=O)[C@@H]2CC[C@@H]3CCS(=O)(=O)C[C@H](NC(=O)c4cc5cc(C(F)(F)P(=O)(O)O)ccc5s4)C(=O)N32)C[C@H]1c1ccccc1 (single isomer, unassigned): 6.00 to 7.00
- C[C@H](CC(=O)N1CC[C@H]2CC[C@@H](C(=O)N3CCCC3)N2C(=O)[C@@H](NC(=O)c2cc3cc(C(F)(F)P(=O)(O)O)ccc3s2)C1)c1ccccc1: 6.00 to 7.00
- CC(=O)N1CC[C@H]2CC[C@@H](C(=O)N(C)CCC#N)N2C(=O)[C@@H](NC(=O)c2cc3cc(C(F)(F)P(=O)(O)O)ccc3s2)C1: 5.00 to 6.00
